molecular target: VIM-2 (Escherichia coli, UniProt Q5U7L7)
I'd be grateful if you could share measured pIC50 for these entries.
pIC50 here: minus log base 10 of the concentration, concentration in moles per litre.

Data request: For the molecule O=C(N[C@H](Cc1c[nH]c2ccccc12)C(=O)O)c1nc(Cl)c2ccccc2c1O [(R)-7d] , what pIC50 is on record?
Data returned: 4.26

Data request: For O=C(N[C@@H](Cc1c[nH]c2ccccc12)C(=O)O)c1nc(Cl)c2ccccc2c1O [(S)-7d] then?
Data returned: 4.26

* * *

target: NDM-1 (Klebsiella pneumoniae, UniProt C7C422); test: biochemical
Sequence (C7C422 29-270 limits assumed): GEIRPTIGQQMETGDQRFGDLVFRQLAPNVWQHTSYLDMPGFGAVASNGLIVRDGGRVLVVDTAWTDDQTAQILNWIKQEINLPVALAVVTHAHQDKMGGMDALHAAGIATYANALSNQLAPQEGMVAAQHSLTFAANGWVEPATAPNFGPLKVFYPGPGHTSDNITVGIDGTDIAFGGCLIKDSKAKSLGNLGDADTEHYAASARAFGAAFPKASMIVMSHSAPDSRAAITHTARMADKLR
measured_property: pIC50
Friendly reminder that pIC50 comes from taking -log10 of the concentration in mol/L.

Data request: Observed pIC50 on NDM-1 (Klebsiella pneumoniae, UniProt C7C422) for O=C(N[C@H](Cc1c[nH]c2ccccc12)C(=O)O)c1nc(Cl)c2ccccc2c1O [(R)-7d] , please.
Data returned: 4.33

Data request: Queued: O=C(N[C@@H](Cc1c[nH]c2ccccc12)C(=O)O)c1nc(Cl)c2ccccc2c1O [(S)-7d]
Data returned: 4.21
